target: Cytochrome P450 3A5 (Homo sapiens); experiment: Mechanism based inhibition of human cytochrome P450 3A5 measured by testosterone hydroxylation; type: ADME
What Ki was measured for each of the following?
One number for each entry, in nM.

[Q] Bench note: what Ki did CC(C)CN(C[C@@H](O)[C@H](Cc1ccccc1)NC(=O)O[C@H]1CCOC1)S(=O)(=O)c1ccc(N)cc1 show?
[A] 200

Could you now consider this next molecule?
[Q] Bench note: what Ki did Cc1c(O)cccc1C(=O)N[C@@H](CSc1ccccc1)[C@H](O)CN1C[C@H]2CCCC[C@H]2C[C@H]1C(=O)NC(C)(C)C show?
[A] 570

---

What kinact was measured for each of the following?
target: Cytochrome P450 2E1 (Oryctolagus cuniculus) (UniProt P08682); assay: Mechanism based inhibition of rabbit cytochrome P450 CYP2E1 measured by 7-EFC O-deethylation activity; conditions: probe 7-EFC (O-deethylation)
Sequence (P08682 whole entry, looked up): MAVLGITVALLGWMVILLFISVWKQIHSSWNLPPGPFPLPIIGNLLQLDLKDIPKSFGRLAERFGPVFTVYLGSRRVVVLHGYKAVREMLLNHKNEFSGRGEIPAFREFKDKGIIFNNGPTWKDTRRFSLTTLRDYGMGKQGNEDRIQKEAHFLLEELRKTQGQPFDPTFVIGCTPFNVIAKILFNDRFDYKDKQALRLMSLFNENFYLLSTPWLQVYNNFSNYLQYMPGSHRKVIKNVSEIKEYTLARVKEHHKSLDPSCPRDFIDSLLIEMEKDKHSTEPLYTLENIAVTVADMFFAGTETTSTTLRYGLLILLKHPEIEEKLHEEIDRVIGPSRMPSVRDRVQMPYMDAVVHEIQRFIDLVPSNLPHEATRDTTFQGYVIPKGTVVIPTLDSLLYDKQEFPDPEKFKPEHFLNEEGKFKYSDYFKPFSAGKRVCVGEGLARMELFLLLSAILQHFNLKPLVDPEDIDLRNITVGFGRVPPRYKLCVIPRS

[Q] Bench note: what kinact did C#CC(C)OC(C)(C)C (configuration not stated) show?
[A] 0.002 s⁻¹

Could you now consider this next compound?
[Q] Bench note: what kinact did C#CC(C)(C)C show?
[A] 0.00333 s⁻¹

---

molecular target: CYP3A4 (Homo sapiens, UniProt P08684); experiment: Mechanism based inhibition of human cytochrome P450 3A4 measured by triazolam alpha- hydroxylation using recombinant CYP3A4; format: ADME; conditions: recombinant CYP3A4, probe triazolam (alpha-hydroxylation)
Sequence (P08684 whole entry): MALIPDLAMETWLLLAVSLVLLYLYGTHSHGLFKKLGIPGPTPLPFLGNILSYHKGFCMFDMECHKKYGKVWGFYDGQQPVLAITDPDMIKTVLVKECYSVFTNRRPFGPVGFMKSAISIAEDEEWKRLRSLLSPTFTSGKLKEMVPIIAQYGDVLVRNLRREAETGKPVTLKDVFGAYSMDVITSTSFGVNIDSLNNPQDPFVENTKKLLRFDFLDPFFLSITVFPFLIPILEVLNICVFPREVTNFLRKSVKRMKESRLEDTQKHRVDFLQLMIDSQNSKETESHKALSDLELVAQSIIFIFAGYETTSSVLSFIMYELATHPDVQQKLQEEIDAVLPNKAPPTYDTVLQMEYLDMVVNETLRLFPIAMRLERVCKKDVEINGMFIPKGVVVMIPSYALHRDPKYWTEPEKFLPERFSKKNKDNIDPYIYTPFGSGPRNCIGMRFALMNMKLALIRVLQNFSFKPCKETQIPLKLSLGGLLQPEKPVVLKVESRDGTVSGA
endpoint-label: kinact (s⁻¹)
Answers are plain numbers, in s⁻¹.

[Q] Bench note: what kinact did CC[C@H]1OC(=O)[C@H](C)[C@@H](O[C@H]2C[C@@](C)(OC)[C@@H](O)[C@H](C)O2)[C@H](C)[C@@H](O[C@@H]2O[C@H](C)C[C@H](N(C)C)[C@H]2O)[C@](C)(O)C[C@@H](C)C(=O)[C@H](C)[C@@H](O)[C@]1(C)O show?
[A] 0.00288

---

Biological target: CYP2C8 (Homo sapiens)
Sequence (P10632 whole entry): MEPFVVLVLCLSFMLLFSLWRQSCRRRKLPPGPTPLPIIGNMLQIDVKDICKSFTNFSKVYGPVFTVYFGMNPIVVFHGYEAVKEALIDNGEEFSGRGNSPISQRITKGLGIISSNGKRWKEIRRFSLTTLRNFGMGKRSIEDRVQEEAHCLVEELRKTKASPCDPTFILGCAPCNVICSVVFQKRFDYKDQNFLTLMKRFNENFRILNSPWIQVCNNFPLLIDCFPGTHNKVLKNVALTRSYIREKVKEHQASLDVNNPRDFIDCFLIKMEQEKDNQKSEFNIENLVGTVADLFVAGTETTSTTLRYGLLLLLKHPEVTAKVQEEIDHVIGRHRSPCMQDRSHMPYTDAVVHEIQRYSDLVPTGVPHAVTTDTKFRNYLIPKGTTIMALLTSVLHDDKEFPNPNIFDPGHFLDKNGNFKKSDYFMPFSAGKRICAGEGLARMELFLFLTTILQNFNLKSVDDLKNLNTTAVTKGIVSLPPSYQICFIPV
Experiment: in vitro
Conditions: human liver microsomes, probe paclitaxel
Description: Mechanism based inhibition of human cytochrome P450 2C8 measured by paclitaxel hydroxylation using human liver microsomes
endpoint-label: kinact (s⁻¹)
One number for each entry, in s⁻¹.

[Q] Bench note: what kinact did NNCCc1ccccc1 show?
[A] 0.00283

---

Target: Cytochrome P450 2C8 (Homo sapiens)
Sequence (P10632 whole entry): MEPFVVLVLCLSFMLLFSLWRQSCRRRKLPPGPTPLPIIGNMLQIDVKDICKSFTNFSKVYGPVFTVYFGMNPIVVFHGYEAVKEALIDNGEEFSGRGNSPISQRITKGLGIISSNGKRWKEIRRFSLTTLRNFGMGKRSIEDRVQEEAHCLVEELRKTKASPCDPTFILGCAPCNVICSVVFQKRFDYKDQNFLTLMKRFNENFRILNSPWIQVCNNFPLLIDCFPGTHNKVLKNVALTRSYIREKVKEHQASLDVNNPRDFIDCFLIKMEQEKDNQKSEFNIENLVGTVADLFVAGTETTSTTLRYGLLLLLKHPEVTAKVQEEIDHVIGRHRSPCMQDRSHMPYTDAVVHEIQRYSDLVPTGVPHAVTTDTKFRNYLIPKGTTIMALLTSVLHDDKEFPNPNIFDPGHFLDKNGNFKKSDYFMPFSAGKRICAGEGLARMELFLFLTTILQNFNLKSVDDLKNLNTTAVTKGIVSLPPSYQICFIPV
endpoint-label: pKi
Give bare numbers, as −log10 of the molar value.

[Q] Bench note: what pKi did NNCCc1ccccc1 show?
[A] 4.27

---

target: Cytochrome P450 3A5 (Homo sapiens, UniProt P20815); assay: Mechanism based inhibition of human cytochrome P450 3A5; type: ADME
Sequence (P20815 whole entry): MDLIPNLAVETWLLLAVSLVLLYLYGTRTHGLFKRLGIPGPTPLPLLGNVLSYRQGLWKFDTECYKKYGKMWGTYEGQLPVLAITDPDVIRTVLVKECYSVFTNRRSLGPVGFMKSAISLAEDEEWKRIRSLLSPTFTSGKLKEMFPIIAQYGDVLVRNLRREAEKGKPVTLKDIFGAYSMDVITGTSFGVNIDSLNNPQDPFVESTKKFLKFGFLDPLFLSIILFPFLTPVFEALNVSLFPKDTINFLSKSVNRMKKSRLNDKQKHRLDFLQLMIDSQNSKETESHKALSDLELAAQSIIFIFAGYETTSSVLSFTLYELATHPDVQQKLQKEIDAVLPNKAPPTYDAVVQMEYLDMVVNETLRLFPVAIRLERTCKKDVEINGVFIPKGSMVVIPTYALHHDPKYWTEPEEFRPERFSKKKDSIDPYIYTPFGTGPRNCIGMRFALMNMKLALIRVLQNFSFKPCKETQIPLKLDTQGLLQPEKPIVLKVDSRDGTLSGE
endpoint-label: Ki (µM)
One number for each entry, in µM.

[Q] Bench note: what Ki did CC(C)=CCC/C(C)=C/COc1c2ccoc2cc2oc(=O)ccc12 show?
[A] 20

---

biological target: Cytochrome P450 2D6 (Homo sapiens); test: Mechanism based inhibition of human cytochrome P450 2D6 measured by dextromethorphan O-demethylation
Sequence (P10635 whole entry): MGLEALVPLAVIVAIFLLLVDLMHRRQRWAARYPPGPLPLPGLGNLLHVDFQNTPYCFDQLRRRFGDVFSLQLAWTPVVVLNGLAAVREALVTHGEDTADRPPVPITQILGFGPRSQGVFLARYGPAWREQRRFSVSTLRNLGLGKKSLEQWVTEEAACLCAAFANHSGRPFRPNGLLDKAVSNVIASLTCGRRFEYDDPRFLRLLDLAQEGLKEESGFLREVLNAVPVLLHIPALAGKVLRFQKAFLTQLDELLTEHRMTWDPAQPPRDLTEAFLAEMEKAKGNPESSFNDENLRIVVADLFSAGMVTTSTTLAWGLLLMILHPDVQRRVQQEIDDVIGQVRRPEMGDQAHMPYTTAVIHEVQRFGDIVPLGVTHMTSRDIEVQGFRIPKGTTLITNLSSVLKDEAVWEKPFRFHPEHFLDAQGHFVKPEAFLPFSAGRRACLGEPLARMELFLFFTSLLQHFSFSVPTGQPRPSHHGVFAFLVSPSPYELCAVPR
endpoint-label: Ki (µM)
Answers are plain numbers, in µM.

[Q] Bench note: what Ki did CN/C(=N/CCSCc1nc[nH]c1C)NC#N show?
[A] 77

---

molecular target: CYP3A4 (Homo sapiens); assay: Mechanism based inhibition of human cytochrome P450 3A4 using expressed CYP3A4 cDNA; format: ADME; conditions: human, cDNA-expressed CYP3A4
endpoint-label: kinact (s⁻¹)
Give bare numbers, in s⁻¹.

[Q] Bench note: what kinact did COc1ccc(CCNCCCC(C#N)(c2ccc(OC)c(OC)c2)C(C)C)cc1OC (stereo unspecified) show?
[A] 0.005

---

molecular target: Cytochrome P450 2E1 (Rattus norvegicus, UniProt P05182)
Sequence (P05182 whole entry): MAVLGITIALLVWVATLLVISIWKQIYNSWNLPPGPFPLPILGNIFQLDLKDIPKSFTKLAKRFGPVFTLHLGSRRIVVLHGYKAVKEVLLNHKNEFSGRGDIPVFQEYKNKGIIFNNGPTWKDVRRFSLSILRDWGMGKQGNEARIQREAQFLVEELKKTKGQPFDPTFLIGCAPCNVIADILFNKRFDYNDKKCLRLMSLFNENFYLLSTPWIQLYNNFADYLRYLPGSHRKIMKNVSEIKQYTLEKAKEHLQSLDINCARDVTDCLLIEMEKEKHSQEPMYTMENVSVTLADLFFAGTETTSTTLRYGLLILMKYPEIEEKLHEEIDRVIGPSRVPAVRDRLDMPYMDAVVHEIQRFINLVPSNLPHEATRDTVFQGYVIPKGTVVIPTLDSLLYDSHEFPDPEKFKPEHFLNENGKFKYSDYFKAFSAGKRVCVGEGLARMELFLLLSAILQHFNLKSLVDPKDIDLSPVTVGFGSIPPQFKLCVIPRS
endpoint-label: pKi
Answers are plain numbers, as −log10 of the molar value.

[Q] Bench note: what pKi did C=CCS(=O)(=O)CC=C show?
[A] 3.73

---

What pKi was measured for each of the following?
target: Cytochrome P450 3A4 (Homo sapiens, UniProt P08684); assay: Mechanism based inhibition of human cytochrome P450 3A4 measured by testosterone 6-beta hydroxylation; assay type: ADME
Sequence (P08684 whole entry): as the sequence (P08684 whole entry) above
Give bare numbers, as −log10 of the molar value.

Need pKi for each of these compounds.
1. CC/C(=C(\c1ccccc1)c1ccc(OCCN)cc1)c1ccccc1
2. CC(C)CN(C[C@@H](O)[C@H](Cc1ccccc1)NC(=O)[C@@H](NC(=O)CNCc1cccc(F)c1)C(C)(C)C)S(=O)(=O)c1cccc(N)c1
3. CNCCCC(C#N)(c1ccc(OC)c(OC)c1)C(C)C (centres undefined)
4. CC(C)(C)NC(=O)[C@@H]1CN(Cc2cnc3occc3c2)CCN1C[C@@H](O)C[C@@H](Cc1ccccc1)C(=O)N[C@H]1c2ccccc2C[C@H]1O

[A]
1: 5.59; 2: 6.62; 3: 5.10; 4: 5.12

---

target: CYP2B6 (Homo sapiens, UniProt P20813); assay: Mechanism based inhibition of human cytochrome P450 2B6 using human liver microsomes; details: human, human liver microsomes
Sequence (P20813 whole entry): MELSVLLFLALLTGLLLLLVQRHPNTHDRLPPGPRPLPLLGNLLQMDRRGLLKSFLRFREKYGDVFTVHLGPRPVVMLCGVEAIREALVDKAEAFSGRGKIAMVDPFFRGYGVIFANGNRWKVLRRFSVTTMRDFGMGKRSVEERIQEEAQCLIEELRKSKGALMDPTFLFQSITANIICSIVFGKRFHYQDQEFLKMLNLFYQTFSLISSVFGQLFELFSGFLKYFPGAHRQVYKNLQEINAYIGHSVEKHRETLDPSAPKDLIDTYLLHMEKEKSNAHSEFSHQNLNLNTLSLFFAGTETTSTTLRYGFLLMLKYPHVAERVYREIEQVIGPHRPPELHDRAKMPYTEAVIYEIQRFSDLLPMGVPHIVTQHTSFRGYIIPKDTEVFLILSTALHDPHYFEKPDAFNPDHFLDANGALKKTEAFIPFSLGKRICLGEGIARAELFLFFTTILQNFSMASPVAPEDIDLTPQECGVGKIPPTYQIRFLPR
endpoint-label: kinact (s⁻¹)
One number for each entry, in s⁻¹.

[Q] Bench note: what kinact did COC(=O)[C@H](c1ccccc1Cl)N1CCc2sccc2C1 show?
[A] 0.00583

---

target: UniProt P08684; assay: Mechanism based inhibition of human cytochrome P450 3A4 measured by testosterone 6-beta hydroxylation using human liver microsomes; format: ADME, Microsome
endpoint-label: pKi
Give bare numbers, as −log10 of the molar value.

[Q] Bench note: what pKi did COc1ccc(CCNCCCC(C#N)(c2ccc(OC)c(OC)c2)C(C)C)cc1OC (stereo unspecified) [NORVERAPAMIL] show?
[A] 5.68

---

What pKi was measured for each of the following?
target: Cytochrome P450 1A1 (Rattus norvegicus); assay: Mechanism based inhibition of rat cytochrome P450 CYP1A1 measured by 7-ethoxyresorufin O-deethylation (EROD); assay type: ADME
Sequence (P00185 whole entry): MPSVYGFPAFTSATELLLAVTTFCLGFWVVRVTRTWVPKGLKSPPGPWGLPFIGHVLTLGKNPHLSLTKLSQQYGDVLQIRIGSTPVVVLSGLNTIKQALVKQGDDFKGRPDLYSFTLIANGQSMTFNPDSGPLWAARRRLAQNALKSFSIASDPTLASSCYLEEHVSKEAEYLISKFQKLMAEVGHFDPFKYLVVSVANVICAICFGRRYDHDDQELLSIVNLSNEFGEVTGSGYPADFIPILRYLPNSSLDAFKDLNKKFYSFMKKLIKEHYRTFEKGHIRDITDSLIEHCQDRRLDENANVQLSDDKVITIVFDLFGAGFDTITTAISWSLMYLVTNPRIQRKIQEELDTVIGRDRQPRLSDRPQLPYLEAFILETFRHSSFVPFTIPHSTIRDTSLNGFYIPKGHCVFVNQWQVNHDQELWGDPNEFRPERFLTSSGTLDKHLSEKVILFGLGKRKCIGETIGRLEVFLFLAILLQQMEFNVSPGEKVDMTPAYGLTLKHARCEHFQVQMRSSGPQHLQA
Numbers only, as −log10 of the molar value.

Example entries and their recorded answers appear below.
[Q] Bench note: what pKi did C#Cc1ccc(NC(C)=O)cc1 show?
[A] 5.07

[Q] Same question for C#Cc1ccc2ccc3cccc4ccc1c2c34 please.
[A] 7.70

[Q] Same question for CC#CCCCc1ccccc1 please.
[A] 6.27

[Q] Same question for C#Cc1ccc2ccc3ccccc3c2c1 please.
[A] 7.05

[Q] Same question for CC#Cc1ccc2ccc3cccc4ccc1c2c34 please.
[A] 6.52

[Q] Same question for C#Cc1ccc(-c2ccccc2)cc1 please.
[A] 6.57

[Q] Same question for CC#Cc1ccc2c(ccc3ccccc32)c1 please.
[A] 8.00

[Q] Same question for C#Cc1ccc2c(ccc3ccccc32)c1 please.
[A] 6.60

Could you now consider this next compound?
[Q] Bench note: what pKi did C#Cc1cc2cccc3ccc4cccc1c4c32 show?
[A] 8.00

---

biological target: CYP2B6 (Homo sapiens); assay: Mechanism based inhibition of human cytochrome P450 2B6; type: ADME; conditions: human
What kinact was measured for each of the following?
One number for each entry, in s⁻¹.

Example entries and their recorded answers appear below.
[Q] Bench note: what kinact did CC(C)(c1ccccc1)N1CCCCC1 show?
[A] 0.00117

[Q] Same question for CC(C)=CCC/C(C)=C/COc1c2ccoc2cc2oc(=O)ccc12 [BERGAMOTTIN] please.
[A] 0.00145

Could you now consider this next molecule?
[Q] Bench note: what kinact did c1ccc(C2(N3CCCCC3)CCCCC2)cc1 [PHENCYCLIDINE] show?
[A] 0.000167
